# EXPERIMENTAL TARGET: UniProtKB P03428
# Sequence (P03428 whole entry, looked up): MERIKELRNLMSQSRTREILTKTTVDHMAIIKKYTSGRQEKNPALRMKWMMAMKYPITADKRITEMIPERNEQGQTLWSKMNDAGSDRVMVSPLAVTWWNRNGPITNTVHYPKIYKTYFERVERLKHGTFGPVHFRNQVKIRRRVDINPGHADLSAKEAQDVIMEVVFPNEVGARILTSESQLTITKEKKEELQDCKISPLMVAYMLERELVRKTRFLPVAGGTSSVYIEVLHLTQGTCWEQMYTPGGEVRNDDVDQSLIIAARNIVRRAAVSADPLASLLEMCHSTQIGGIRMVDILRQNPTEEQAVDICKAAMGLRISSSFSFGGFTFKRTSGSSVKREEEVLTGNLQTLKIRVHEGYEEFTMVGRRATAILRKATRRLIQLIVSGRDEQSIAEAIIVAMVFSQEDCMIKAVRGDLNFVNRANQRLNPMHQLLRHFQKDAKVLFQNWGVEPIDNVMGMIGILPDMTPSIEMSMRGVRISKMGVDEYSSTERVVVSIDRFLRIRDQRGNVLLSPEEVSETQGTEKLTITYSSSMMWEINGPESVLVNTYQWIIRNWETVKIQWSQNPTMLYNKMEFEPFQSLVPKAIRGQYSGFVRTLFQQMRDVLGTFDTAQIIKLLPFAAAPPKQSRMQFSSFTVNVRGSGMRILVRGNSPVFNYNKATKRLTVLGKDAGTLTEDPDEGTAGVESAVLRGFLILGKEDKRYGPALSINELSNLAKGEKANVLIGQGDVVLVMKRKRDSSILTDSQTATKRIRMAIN
# EXPERIMENTAL PROTOCOL: biochemical
REPORTED PROPERTY: EC50

Look over these answered cases.
COMPOUND: CCOCCOCCOCCNC(=O)N[C@@H]1CCC[C@H](Nc2nc(-c3c[nH]c4ncc(F)cc34)ncc2F)C1 [Compound A167]
EC50: > 100 µM

COMPOUND: O=C(N[C@H]1CCC[C@@H](Nc2nc(-c3c[nH]c4ncc(F)cc34)ncc2F)C1)c1cncc(F)c1 [Compound A57]
EC50: 5 to 25 µM

COMPOUND: CCCCc1ccc(C(=O)N[C@@H]2CCC[C@H](Nc3nc(-c4c[nH]c5ncc(F)cc45)ncc3F)C2)nc1 [Compound A58]
EC50: 50 to 100 µM

COMPOUND: O=C(NCCOCC(F)(F)F)OCc1ccnc(C(=O)N[C@H]2CCC[C@@H](Nc3nc(-c4c[nH]c5ncc(F)cc45)ncc3F)C2)c1 [Compound A114]
EC50: 50 to 100 µM

COMPOUND: CC(C)[C@@H](NC(=O)OCc1ccnc(C(=O)N[C@@H]2CCC[C@H](Nc3nc(-c4c[nH]c5ncc(F)cc45)ncc3F)C2)c1)C(=O)O [Compound A142]
EC50: < 5 µM

COMPOUND: O=C(O)CN1CCC[C@H](Nc2nc(-c3c[nH]c4ncc(F)cc34)ncc2F)C1 [Compound C12]
EC50: 5 to 25 µM

Query block: Specify reported EC50 for the compound shown: CCOCc1cccc(COCC(=O)N[C@@H]2CCC[C@H](Nc3nc(-c4c[nH]c5ncc(F)cc45)ncc3F)C2)c1 [Compound A275]
Result block: > 100 µM

Query block: Specify reported EC50 for the compound shown: O=C(N[C@H]1CCC[C@@H](Nc2nc(-c3c[nH]c4ncc(F)cc34)ncc2F)C1)N1CCc2ccccc2C1 [Compound A2]
Result block: > 100 µM

Query block: Specify reported EC50 for the compound shown: CCOC1CCCCC1OCCCCCN(C)C(=O)N[C@H]1CCC[C@@H](Nc2nc(-c3c[nH]c4ncc(F)cc34)ncc2F)C1 (stereo partly shown) [Compound A245]
Result block: > 100 µM

Query block: Specify reported EC50 for the compound shown: CCOCCOCCCC1CCCN(C(=O)N[C@@H]2CCC[C@H](Nc3nc(-c4c[nH]c5ncc(F)cc45)ncc3F)C2)C1 (stereo partly shown) [Compound A4]
Result block: 50 to 100 µM

Query block: Specify reported EC50 for the compound shown: CC(NC(=O)OCc1ccnc(C(=O)N[C@H]2CCC[C@@H](Nc3nc(-c4c[nH]c5ncc(F)cc45)ncc3F)C2)c1)c1ccccn1 (stereo partly shown) [Compound A136]
Result block: 5 to 25 µM

Query block: Specify reported EC50 for the compound shown: COCCOCCCCCCN(C)C(=O)N[C@H]1CCC[C@@H](Nc2nc(-c3c[nH]c4ncc(F)cc34)ncc2F)C1 [Compound A244]
Result block: > 100 µM

Query block: Specify reported EC50 for the compound shown: CCOCCCc1cccc(CCN(C)C(=O)N[C@H]2CCC[C@@H](Nc3nc(-c4c[nH]c5ncc(F)cc45)ncc3F)C2)c1 [Compound A220]
Result block: 50 to 100 µM

These entries and their values trace back to patent US12357631B2.
